pEC50 values, listed per item
Target: human F508del CFTR (Homo sapiens, UniProt P13569, DEL508-508)
Sequence (P13569 with tags, fused parts or gaps DEL508-508): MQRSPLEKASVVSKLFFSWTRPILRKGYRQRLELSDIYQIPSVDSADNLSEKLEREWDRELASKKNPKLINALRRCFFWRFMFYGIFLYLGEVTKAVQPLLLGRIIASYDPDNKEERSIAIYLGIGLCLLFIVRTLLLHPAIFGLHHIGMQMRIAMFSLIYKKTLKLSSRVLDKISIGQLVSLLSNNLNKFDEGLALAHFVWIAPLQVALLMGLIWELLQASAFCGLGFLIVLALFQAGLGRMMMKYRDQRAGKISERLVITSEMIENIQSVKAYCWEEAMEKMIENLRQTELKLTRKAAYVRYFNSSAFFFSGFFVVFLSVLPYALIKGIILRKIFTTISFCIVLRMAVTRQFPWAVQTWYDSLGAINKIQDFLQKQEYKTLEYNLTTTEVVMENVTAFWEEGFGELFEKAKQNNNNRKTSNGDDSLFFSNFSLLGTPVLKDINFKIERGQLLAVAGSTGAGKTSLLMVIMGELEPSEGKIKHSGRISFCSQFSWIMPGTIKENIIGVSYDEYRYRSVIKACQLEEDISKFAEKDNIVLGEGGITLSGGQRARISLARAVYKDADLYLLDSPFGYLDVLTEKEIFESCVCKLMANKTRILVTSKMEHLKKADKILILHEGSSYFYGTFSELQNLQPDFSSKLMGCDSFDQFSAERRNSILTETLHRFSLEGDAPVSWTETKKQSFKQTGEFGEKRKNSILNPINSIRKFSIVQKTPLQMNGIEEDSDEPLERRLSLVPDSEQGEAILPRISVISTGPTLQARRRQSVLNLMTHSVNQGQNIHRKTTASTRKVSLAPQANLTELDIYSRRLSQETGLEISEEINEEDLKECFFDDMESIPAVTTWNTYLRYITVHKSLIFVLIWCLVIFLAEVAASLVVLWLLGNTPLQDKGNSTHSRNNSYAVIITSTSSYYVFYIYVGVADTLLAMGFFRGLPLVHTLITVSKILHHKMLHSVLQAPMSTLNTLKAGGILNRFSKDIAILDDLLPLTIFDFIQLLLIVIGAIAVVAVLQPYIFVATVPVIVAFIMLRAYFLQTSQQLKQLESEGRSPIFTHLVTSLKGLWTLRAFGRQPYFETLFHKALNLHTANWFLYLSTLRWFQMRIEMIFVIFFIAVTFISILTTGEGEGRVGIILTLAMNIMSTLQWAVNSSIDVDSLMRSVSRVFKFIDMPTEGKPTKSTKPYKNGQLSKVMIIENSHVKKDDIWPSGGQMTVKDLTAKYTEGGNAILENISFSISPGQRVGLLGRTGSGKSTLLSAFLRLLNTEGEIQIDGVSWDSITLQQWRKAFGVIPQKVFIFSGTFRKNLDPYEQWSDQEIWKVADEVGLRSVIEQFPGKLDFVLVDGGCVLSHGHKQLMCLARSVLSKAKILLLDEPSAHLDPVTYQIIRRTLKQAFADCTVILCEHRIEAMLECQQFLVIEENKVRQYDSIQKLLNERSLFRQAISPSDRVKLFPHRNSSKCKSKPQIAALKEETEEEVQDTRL
Assay: CFTR-YFP High Throughput Assay
Conditions: FRT cells expressing human F508del CFTR and YFP
pEC50: −log10 of the molar value.

SMILES_REPR: CCN(C(=O)Cn1nc(-c2ccc(S(N)(=O)=O)cc2)c2ccccc2c1=O)c1ccc2c(c1)OC(F)(F)O2
pEC50: 4.70 to 5.00
//
SMILES_REPR: CCN(C(=O)c1nn(-c2ccc(C)cc2)c(=O)c2c1c1cc(OC)ccc1n2C)c1ccccc1
pEC50: < 4.70
//
SMILES_REPR: CC(C)n1nc(-c2ccccc2)c2c3ccccc3n(C)c2c1=O
pEC50: < 4.70
//
SMILES_REPR: CC(C)N(C(=O)c1nn(-c2ccccc2)c(=O)c2c1c1ccccc1n2C)c1ccc(Cl)cc1
pEC50: > 5.00

====

Target: human F508del CFTR (Homo sapiens, UniProt P13569, DEL508-508)
Construct: expressed in transfected cells; host or cells: Fisher Rat Thyroid (FRT) cells
Assay: CFTR-YFP High Throughput Assay
Format: cell-based
Conditions: EMax normalized to the positive control; FRT cells expressing human F508del CFTR and YFP; read-out: % Efficacy
MEASURED_ENDPOINT: Emax

SMILES_REPR: CCN(C(=O)c1nn(Cc2ccccc2)c(=O)c2c1c1ccccc1n2C)c1ccccc1
RESULT: 30 to 80%

SMILES_REPR: CCN(C(=O)c1nn(-c2ccc(C)cc2)c(=O)c2c1c1ccccc1n2C)c1ccccn1
RESULT: 30 to 80%

SMILES_REPR: CCN(C(=O)Cn1ncc2c(c1=O)c1ccccc1n2Cc1cccnc1)c1ccc2c(c1)OC(F)(F)O2
RESULT: 30 to 80%

SMILES_REPR: CC(C)n1nc(C(=O)N2CCCCC2)c2c3ccccc3n(C)c2c1=O
RESULT: 10 to 30%

SMILES_REPR: CCN(C(=O)Cn1nc(C(=O)N(CC)c2cccc(Cl)c2)c2c3ccccc3n(C)c2c1=O)c1ccc2c(c1)OC(F)(F)O2
RESULT: 30 to 80%

SMILES_REPR: CCN(C(=O)Cn1nc(-c2ccc(S(N)(=O)=O)cc2)c2ccc(OC)cc2c1=O)c1ccc2c(c1)OC(F)(F)O2
RESULT: > 80%

SMILES_REPR: CCN(C(=O)c1nn(-c2ccc(C(F)(F)F)cc2)c(=O)c2c1c1ccccc1n2C)c1ccccc1
RESULT: 30 to 80%

====

pEC50 values, listed per item
Molecular target: human F508del CFTR (Homo sapiens, UniProt P13569, DEL508-508)
Experiment: CFTR-YFP High Throughput Assay
Details: FRT cells expressing human F508del CFTR and YFP
pEC50: −log10 of the molar value.
MEASURED_ENDPOINT: pEC50

MOLECULE: COc1ccc2c(-c3cccc(C#N)c3)nn(CC(=O)N(c3ccc4c(c3)OC(F)(F)O4)C(C)C)c(=O)c2c1
RESULT: 4.70 to 5.00
--
MOLECULE: Cn1c2ccccc2c2c(-c3ccccc3)nn(C3CCCCC3)c(=O)c21
RESULT: > 5.00
--
MOLECULE: CCN(C(=O)c1nn(C2CCOCC2)c(=O)c2c1c1ccccc1n2C)c1ccccc1
RESULT: > 5.00
--
MOLECULE: CCOC(=O)c1ccc2c(-c3cccc(F)c3)nn(CC(=O)N(C)c3ccc4nc(C)oc4c3)c(=O)c2c1
RESULT: > 5.00
--
MOLECULE: CCN(CC)C(=O)c1nn(CC(O)COCc2ccccc2)c(=O)c2c1c1c(Cl)cccc1n2C (centres unmarked)
RESULT: > 5.00
--
MOLECULE: Cc1ccc(-n2nc(C(=O)Nc3cc(Cl)ccc3C(=O)O)c3c4ccccc4n(C)c3c2=O)cc1
RESULT: < 4.70
--
MOLECULE: CCc1ccc(N(CC)C(=O)Cn2nc(-c3cccc(O)c3)c3ccccc3c2=O)cc1
RESULT: > 5.00
--
MOLECULE: CCc1ccc(N(CC)C(=O)Cn2nc(-c3cccc(C#N)c3)c3ccccc3c2=O)cc1
RESULT: > 5.00
